Study System: T1, biotin-labeled CD47 extracellular domain protein (CD47-ECD) (UniProt Q08722 19-139, limits assumed, biotin-labeled (sites not given))
T1 construct: extracellular domain; also called CD47 protein
T1 sequence (Q08722 19-139 limits assumed): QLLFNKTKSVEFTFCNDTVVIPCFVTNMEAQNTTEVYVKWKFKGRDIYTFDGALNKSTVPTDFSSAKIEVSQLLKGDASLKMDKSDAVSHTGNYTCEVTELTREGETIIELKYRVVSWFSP
Protocol Text: blocking ELISA, biotin-CD47-ECD on coated SIRPα-hFc; Ab 0.064 nM

- Binder: "95E2D10 (antibody, V domains shown, Murine hybridoma antibody purified on protein G) VH: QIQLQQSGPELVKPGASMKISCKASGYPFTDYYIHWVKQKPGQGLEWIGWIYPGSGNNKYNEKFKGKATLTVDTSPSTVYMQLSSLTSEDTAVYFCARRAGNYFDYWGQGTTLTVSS VL: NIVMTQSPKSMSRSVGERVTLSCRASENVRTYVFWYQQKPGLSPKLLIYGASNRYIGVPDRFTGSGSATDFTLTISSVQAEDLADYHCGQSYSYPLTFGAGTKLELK"
  OD450 nm of CD47 bound to SIRPα: 2.84
- Binder: "4D10B11 (antibody, V domains shown, Murine hybridoma antibody purified on protein G) VH: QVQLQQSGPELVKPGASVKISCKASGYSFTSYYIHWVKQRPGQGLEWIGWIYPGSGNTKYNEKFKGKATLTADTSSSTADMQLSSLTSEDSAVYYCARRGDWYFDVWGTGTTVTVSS VL: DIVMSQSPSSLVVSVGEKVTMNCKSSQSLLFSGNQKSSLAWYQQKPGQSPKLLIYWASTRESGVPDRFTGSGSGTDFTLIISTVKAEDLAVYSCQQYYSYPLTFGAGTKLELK"
  OD450 nm of CD47 bound to SIRPα: 2.45
